B1: library; numbered along this chain (parent)
chain: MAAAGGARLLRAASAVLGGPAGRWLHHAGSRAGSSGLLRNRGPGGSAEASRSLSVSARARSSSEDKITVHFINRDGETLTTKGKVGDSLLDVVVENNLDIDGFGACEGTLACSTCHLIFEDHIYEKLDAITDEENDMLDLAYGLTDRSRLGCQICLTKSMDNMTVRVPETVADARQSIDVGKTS

variants of: B1; experiment: scaled log2 fold change in cell abundance, elesclomol vs control (0 = silent mean, 1 = nonsense mean) (scaled log2 ratio); higher = higher viability under elesclomol (loss of FDX1 cuproptosis function); conditions: with ABC1 FDX1 KO; elesclomol 5 nM; glucose 10 mM; 14 days;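 further: variant abundance is its share of total variant reads in each endpoint sample, from next-generation sequencing of the integrated ORF PCR-amplified out of genomic DNA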
Threshold check on scaled log2 fold change: at or above 0.06 gives 1, strictly below gives -1.

Kindly determine if scaled log2 fold change recorded for L110H is above or exactly 0.06.
1

Kindly determine if scaled log2 fold change recorded for I154C is above or exactly 0.06.
-1

Kindly determine if scaled log2 fold change recorded for G29I is above or exactly 0.06.
1

Kindly determine if scaled log2 fold change recorded for A49Q is above or exactly 0.06.
1

Kindly determine if scaled log2 fold change recorded for S148A is above or exactly 0.06.
-1

Kindly determine if scaled log2 fold change recorded for S63G is above or exactly 0.06.
1

Kindly determine if scaled log2 fold change recorded for L25P is above or exactly 0.06.
1

Kindly determine if scaled log2 fold change recorded for L127F is above or exactly 0.06.
-1

Kindly determine if scaled log2 fold change recorded for D91Y is above or exactly 0.06.
-1

Kindly determine if scaled log2 fold change recorded for E120T is above or exactly 0.06.
-1

Kindly determine if scaled log2 fold change recorded for M160L is above or exactly 0.06.
-1

Kindly determine if scaled log2 fold change recorded for R147N is above or exactly 0.06.
1

Kindly determine if scaled log2 fold change recorded for G181D is above or exactly 0.06.
1

Kindly determine if scaled log2 fold change recorded for L79D is above or exactly 0.06.
1

Kindly determine if scaled log2 fold change recorded for K182A is above or exactly 0.06.
1

Kindly determine if scaled log2 fold change recorded for T164A is above or exactly 0.06.
1

Kindly determine if scaled log2 fold change recorded for S159R is above or exactly 0.06.
-1

Kindly determine if scaled log2 fold change recorded for Y124M is above or exactly 0.06.
-1

Kindly determine if scaled log2 fold change recorded for S148M is above or exactly 0.06.
1

Kindly determine if scaled log2 fold change recorded for T81C is above or exactly 0.06.
-1

Kindly determine if scaled log2 fold change recorded for G76R is above or exactly 0.06.
-1

Kindly determine if scaled log2 fold change recorded for T68G is above or exactly 0.06.
-1
